- TARGET: human cloned CHRM2 receptor (Homo sapiens)
- ASSAY: CHRM2 Ca++ Flux Assay (M2_CHO cells, agonist mode)
- CONDITION_DESCRIPTION: M2 CHO cells, agonist mode; geometric mean if tested more than once; read-out: M2 FDSS EC50
pEC50: −log10 of the molar value.
VALUE_KIND: pEC50

P: Fc1ccc(OC[C@@H]2CCOC2)c(C2CCN([C@@H]3COC4(C3)CN(c3nncs3)C4)CC2)c1 [Example 5I]
Q: c1ccc(C2CCN([C@@H]3COC4(C3)CN(c3nnco3)C4)CC2)c(OC2COC2)c1 [Example 1P]
Please compare: P and Q . Report which one has the smaller pEC50 value. State the label of the item chosen. Q
(Q: 5.96, P: 6.26)

----------
- TARGET: Cloned human M1 receptor (CHRM1) (Homo sapiens, UniProt P11229)
- Sequence (P11229 whole entry): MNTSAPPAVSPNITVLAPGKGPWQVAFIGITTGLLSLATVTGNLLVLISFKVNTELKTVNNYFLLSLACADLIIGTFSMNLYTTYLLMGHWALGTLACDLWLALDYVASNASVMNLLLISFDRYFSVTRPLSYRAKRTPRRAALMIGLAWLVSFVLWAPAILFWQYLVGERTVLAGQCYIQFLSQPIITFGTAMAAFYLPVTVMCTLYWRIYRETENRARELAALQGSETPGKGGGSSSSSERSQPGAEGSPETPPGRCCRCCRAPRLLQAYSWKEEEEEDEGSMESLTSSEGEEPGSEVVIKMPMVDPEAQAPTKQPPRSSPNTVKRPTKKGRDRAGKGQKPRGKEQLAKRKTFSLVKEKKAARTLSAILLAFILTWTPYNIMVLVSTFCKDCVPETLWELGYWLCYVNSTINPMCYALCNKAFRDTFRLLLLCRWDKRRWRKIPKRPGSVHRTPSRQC
- ASSAY: CHRM1 Ca++ Flux Assay (HEK293 M1 cells, agonist mode)
- CONDITION_DESCRIPTION: geometric mean if tested more than once, read-out: M1 FDSS EC50
- Source text: The above examples were characterized by measuring the intracellular mobilization of Ca^++ ions caused by signaling events mediated by the receptor. […]
pEC50: −log10 of the molar value. Where a name gives a salt, the structure may show the parent alone.
VALUE_KIND: pEC50

Below: 4 compounds and their reported pEC50.
1. CC(C)(O)[C@H]1C[C@H](Oc2ccc(F)cc2C2CCN([C@@H]3COC4(C3)CN(c3nnco3)C4)CC2)C1 (single isomer, unassigned) [Example 2W]; 5.46
2. CCc1nnc(COc2ccc(F)cc2C2CCN([C@@H]3COC4(C3)CN(c3nnco3)C4)CC2)s1; 7.20
3. Fc1ccc(OC2COC2)c(C2CCN([C@@H]3COC4(C3)CN(c3ncco3)C4)CC2)c1; 6.63
4. c1ccc(C2CCN([C@@H]3COC4(C3)CN(c3nncs3)C4)CC2)c(OC2COC2)c1 [Example 5Q, formate salt]; 6.06

I: COc1cc(F)ccc1C1CCN([C@@H]2COC3(C2)CN(c2ncns2)C3)CC1
II: CC1(C)C[C@@H](Oc2ccc(F)cc2C2CCN([C@@H]3COC4(C3)CN(c3nnco3)C4)CC2)CO1 (single isomer, unassigned) [Example 2O]
III: C[C@H](Oc1ccc(F)cc1C1CCN([C@@H]2COC3(C2)CN(c2nnco2)C3)CC1)C1CCOCC1 (single isomer, unassigned) [Example 2Y]
IV: COc1ccccc1C1CCN([C@@H]2COC3(C2)CN(c2nnco2)C3)CC1
# desc sort on pEC50 across 4 compounds Submit the labels in the order that the ranking request calls for. IV, II, I, III

----------
- TARGET: human cloned CHRM2 receptor (Homo sapiens, UniProt P08172)
- Construct: expressed in transfected cells; host or cells: CHO-K1 (M2_CHO)
- ASSAY: CHRM2 Ca++ Flux Assay (M2_CHO cells, agonist mode)
- Type: cell-based
- CONDITION_DESCRIPTION: Percent Activity (PA) measured to EC100 of Carbachol; M2 CHO cells
- Procedure: The above examples were characterized by measuring the intracellular mobilization of Ca^++ ions caused by signaling events mediated by the receptor. […] Prior to the day of the assay, stable M2 CHO cells were thawed and plated on Greiner 384 well TC treated plate at a density of 12K cells/well and kept overnight in a humidified atmosphere (5% CO2) at 37° C. […] The Percent Activity (PA) was measured to EC100 of Carbachol. […]
VALUE_KIND: M2 FDSS PA % (%)

Below: 3 compounds and their reported M2 FDSS PA %.
1. Fc1ccc([C@H]2CCOC2)c(C2CCN([C@@H]3COC4(C3)CN(c3nnco3)C4)CC2)c1 (single isomer, unassigned) [Example 3E]; 60
2. OC[C@H]1C[C@H](Oc2ccc(F)cc2C2CCN([C@@H]3COC4(C3)CN(c3nnco3)C4)CC2)C1 (single isomer, unassigned) [Example 2HH]; 25
3. c1ccc([C@@H]2CCOC2)c(C2CCN([C@@H]3COC4(C3)CN(c3nnco3)C4)CC2)c1 (single isomer, unassigned) [Example 3B]; 31

1: C[C@H](Oc1ccc(F)cc1C1CCN([C@@H]2COC3(C2)CN(c2nnco2)C3)CC1)C1CCOCC1 [Example 2X]
2: C[C@H](Oc1ccc(F)cc1C1CCN([C@@H]2COC3(C2)CN(c2nnco2)C3)CC1)C1CCOCC1 (single isomer, unassigned) [Example 2Y]
Of the two listed items, 1 and 2 , which carries the larger M2 FDSS PA % figure? State the label of the item chosen. 2
(2: 35%, 1: 23%)

----------
- TARGET: human cloned CHRM2 receptor (Homo sapiens, UniProt P08172)
- Sequence (P08172 1-466): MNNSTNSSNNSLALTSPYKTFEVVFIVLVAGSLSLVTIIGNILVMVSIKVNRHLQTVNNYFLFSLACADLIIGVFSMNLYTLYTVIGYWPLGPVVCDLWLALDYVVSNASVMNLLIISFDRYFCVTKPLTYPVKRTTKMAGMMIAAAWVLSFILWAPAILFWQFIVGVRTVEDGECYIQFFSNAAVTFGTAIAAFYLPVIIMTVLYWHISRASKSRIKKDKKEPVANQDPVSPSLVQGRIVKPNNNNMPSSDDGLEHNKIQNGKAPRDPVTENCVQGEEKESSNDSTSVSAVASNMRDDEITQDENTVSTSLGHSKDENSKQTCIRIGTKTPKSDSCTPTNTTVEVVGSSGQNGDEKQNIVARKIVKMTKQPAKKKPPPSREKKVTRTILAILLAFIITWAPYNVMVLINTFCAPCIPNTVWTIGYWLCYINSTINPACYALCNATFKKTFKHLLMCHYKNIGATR
- ASSAY: CHRM2 Ca++ Flux Assay (M2_CHO cells, agonist mode)
- CONDITION_DESCRIPTION: M2 CHO cells, agonist mode; geometric mean if tested more than once; read-out: M2 FDSS EC50
VALUE_KIND: EC50 (nM)

Below: 4 compounds and their reported EC50.
1) Fc1cc(F)c(OC2COC2)c(C2CCN([C@@H]3COC4(C3)CN(c3nnco3)C4)CC2)c1; 2940
2) c1ccc(C2CCN([C@@H]3COC4(C3)CN(c3ncco3)C4)CC2)c(O[C@@H]2CCOC2)c1; 3260
3) Fc1cc(OC2COC2)c(C2CCN([C@@H]3COC4(C3)CN(c3nnco3)C4)CC2)cc1F; 312
4) CCc1nnc(COc2ccc(F)cc2C2CCN([C@@H]3COC4(C3)CN(c3nnco3)C4)CC2)s1; 41

1: CC(C)(O)[C@H]1C[C@@H](Oc2ccc(F)cc2C2CCN([C@@H]3COC4(C3)CN(c3ncco3)C4)CC2)C1 (single isomer, unassigned) [Example 4T]
2: Fc1ccc(OC2CCOCC2)c(C2CCN([C@@H]3COC4(C3)CN(c3ncon3)C4)CC2)c1
3: Fc1cc(F)c(OCC2COC2)c(C2CCN([C@@H]3COC4(C3)CN(c3nnco3)C4)CC2)c1
Please produce an ascending ranking of these compounds based on EC50. Submit the labels in the order that the ranking request calls for. 2, 3, 1

----------
- TARGET: human cloned CHRM2 receptor (Homo sapiens, UniProt P08172)
- Construct: expressed in transfected cells; host or cells: CHO-K1 (M2_CHO)
- Sequence (P08172 1-466): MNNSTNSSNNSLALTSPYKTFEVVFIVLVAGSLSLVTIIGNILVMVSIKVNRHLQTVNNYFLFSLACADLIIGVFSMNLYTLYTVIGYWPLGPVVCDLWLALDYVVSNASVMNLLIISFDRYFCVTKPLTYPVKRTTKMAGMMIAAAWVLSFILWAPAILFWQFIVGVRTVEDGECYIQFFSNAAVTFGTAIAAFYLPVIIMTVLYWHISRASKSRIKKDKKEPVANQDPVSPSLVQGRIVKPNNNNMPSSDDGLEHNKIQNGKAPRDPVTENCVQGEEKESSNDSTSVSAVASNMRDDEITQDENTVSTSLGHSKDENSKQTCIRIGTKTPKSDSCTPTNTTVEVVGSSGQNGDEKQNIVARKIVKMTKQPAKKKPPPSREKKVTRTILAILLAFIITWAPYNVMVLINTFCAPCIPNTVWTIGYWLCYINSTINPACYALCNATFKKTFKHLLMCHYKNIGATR
- ASSAY: CHRM2 Ca++ Flux Assay (M2_CHO cells, agonist mode)
- Format: cell-based
- CONDITION_DESCRIPTION: Percent Activity (PA) measured to EC100 of Carbachol; M2 CHO cells; read-out: M2 FDSS PA %
VALUE_KIND: Emax (%)

1. Fc1cc(F)c(OC2CC3(COC3)C2)c(C2CCN([C@@H]3COC4(C3)CN(c3nnco3)C4)CC2)c1 [Example 2AA]; 22

I: c1ccc(C2CCN([C@@H]3COC4(C3)CN(c3nnco3)C4)CC2)c(-c2cncnc2)c1 [Example 1W]
II: COCCOc1ccc(F)cc1C1CCN([C@@H]2COC3(C2)CN(c2nncs2)C3)CC1 [Example 5S]
Of the two listed items, I and II , which carries the larger Emax figure? State the label of the item chosen. I

I: CC(C)(O)CCOc1ccc(F)cc1C1CCN([C@@H]2COC3(C2)CN(c2nnco2)C3)CC1 [Example 1N]
II: Fc1cc(F)c(OC2COC2)c(C2CCN([C@@H]3COC4(C3)CN(c3nnco3)C4)CC2)c1 [Example 2EE]
III: COc1cc(F)ccc1C1CCN([C@@H]2COC3(C2)CN(c2nncs2)C3)CC1 [Example 5T]
# desc sort on Emax across 3 molecules Submit the labels in the order that the ranking request calls for. II, III, I
